Molecular target: T1, endogenous cell surface human MSLN (human, UniProt Q13421 296-598)
T1 construct: whole, on cells; The cell line is named under assay; also called cell-surface MSLN on NCI-H226, OVCAR-3 and AsPC-1 cells
T1 sequence (Q13421 other isoform, or with tags, fused parts or gaps limits assumed): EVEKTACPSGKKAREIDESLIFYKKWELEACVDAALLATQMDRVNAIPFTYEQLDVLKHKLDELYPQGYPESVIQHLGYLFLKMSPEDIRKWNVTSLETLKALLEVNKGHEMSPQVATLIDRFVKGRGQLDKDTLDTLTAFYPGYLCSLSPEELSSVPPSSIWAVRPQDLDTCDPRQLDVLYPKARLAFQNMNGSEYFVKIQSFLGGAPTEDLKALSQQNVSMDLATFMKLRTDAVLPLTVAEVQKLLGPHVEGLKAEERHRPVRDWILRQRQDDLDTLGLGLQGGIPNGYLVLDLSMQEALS
Assay: flow cytometry, NCI-H226 cells
In this section, each of the binders is paired with its reported Emax (MFI).
Report as a plain number; the unit MFI is understood.

Some binders with known Emax (MFI) results, for comparison:
FS22-172-003-AA/FS28-256-018 (bispecific antibody, human IgG1, kappa, L234A L235A, V domains shown, IgG1 mAb^2 with LALA) VH: EVQLLESGGGLVQPGGSLRLSCAASGFTFTQTYMSWVRQAPGKGLEWVSNISPTYSTTNYADSVKGRFTISRDNSKNTLYLQMNSLRAEDTAVYYCARYNAYQIGLDYWGQGTLVTVSS VL: EIVLTQSPGTLSLSPGERATLSCRASQSVSSSYLAWYQQKPGQAPRLLIYGASSRATGIPDRFSGSGSGTDFTLTISRLEPEDFAVYYCQQSYYYPITFGQGTKVEIKR: 348000
FS22-172-003-AA/FS28-256-012 (bispecific antibody, human IgG1, kappa, L234A L235A, V domains shown, IgG1 mAb^2 with LALA) VH: EVQLLESGGGLVQPGGSLRLSCAASGFTFTHTYMSWVRQAPGKGLEWVSNISPTYSTTNYADSVKGRFTISRDNNKNTLYLQMNSLRAEDTAVYYCARYNAYHAALDYWGQGTLVTVSS VL: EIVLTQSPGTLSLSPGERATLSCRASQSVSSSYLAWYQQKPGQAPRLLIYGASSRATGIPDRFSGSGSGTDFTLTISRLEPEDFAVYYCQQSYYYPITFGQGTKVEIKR: 516000

Moving on to the next binder.
Ask: Need Emax (MFI) of FS22-172-003-AA/FS28-256-014 (bispecific antibody, human IgG1, kappa, L234A L235A, V domains shown, IgG1 mAb^2 with LALA) VH: EVQLLESGGGLVQPGGSLRLSCAASGFTFTDTYMSWVRQAPGKGLEWVSNISPTYSTTNYADSVKGRFTISRDNSKNTLYLQMNSLRAEDTAVYYCARYNAYAAGLDYWGQGTLVTVSS VL: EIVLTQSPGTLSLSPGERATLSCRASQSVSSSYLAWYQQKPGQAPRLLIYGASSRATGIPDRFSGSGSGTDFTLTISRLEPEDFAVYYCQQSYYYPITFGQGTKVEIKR , thanks.
Reply: 476000
